- Tested on: Plasmodium berghei
- MEASUREMENT_NOTES: Luciferase/luciferin-expressing antifolate-resistant parasites were used to infect a culture of HepG2 cells that were pre-incubated with compounds. Infected hepatocytes emit light due to the luciferase reaction. Assay results are presented as the percent inhibition of light emission compared to control. […]
- Type: functional
- EXPERIMENTAL_CONTEXT: sporozoite, read-out: LUCIFERASE INFECTION ASSAY - IC50
pIC50: −log10 of the molar value.
pIC50 values by entry

COMPOUND	RECORDED_MEASUREMENT
CCN(CC)S(=O)(=O)c1cccc(-c2nnc(SCC(=O)N3CCc4ccccc43)n2-c2ccccc2)c1	< 5.00
O=C(CSc1nnc(-c2ccco2)n1-c1ccc(OCc2ccccc2)cc1)c1ccc(Cl)cc1	< 5.18

Query string: Specify reported pIC50 for the compound shown: `CCCCN(C)S(=O)(=O)c1ccc(NC(=O)c2ccc3nccnc3c2)cc1`
Result string: < 5.00

---

- Test system: Plasmodium berghei
- MEASUREMENT_NOTES: Luciferase/luciferin-expressing antifolate-resistant parasites were used to infect a culture of HepG2 cells that were pre-incubated with compounds. Infected hepatocytes emit light due to the luciferase reaction. Assay results are presented as the percent inhibition of light emission compared to control. […]
- Assay type: functional
- EXPERIMENTAL_CONTEXT: sporozoite, PBLUC_HILL_SLOPE 12.1, PBLUC_R_SQUARED 0.548, read-out: LUCIFERASE INFECTION ASSAY - IC50
READOUT_LABEL: pIC50
Remember, pIC50 is on a log scale: it is -log10 of the molar concentration.

Query string: Please look at O=C(Nc1nccs1)C1CCCNC1 (stereo unspecified) and tell me its recorded pIC50 on Plasmodium berghei.
Result string: 5.06

---

- System: Plasmodium berghei
- MEASUREMENT_NOTES: Luciferase/luciferin-expressing antifolate-resistant parasites were used to infect a culture of HepG2 cells that were pre-incubated with compounds. Infected hepatocytes emit light due to the luciferase reaction. Assay results are presented as the percent inhibition of light emission compared to control. […]
- Assay type: functional
- EXPERIMENTAL_CONTEXT: sporozoite, FFLUC_HILL_SLOPE 1.52, FFLUC_R_SQUARED 0.66, PBLUC_HILL_SLOPE 3.96, PBLUC_R_SQUARED 0.504, read-out: LUCIFERASE INFECTION ASSAY - IC50
READOUT_LABEL: IC50 (µM)
Answer format: numeric, µM implied, no suffix.

Query string: Specify reported IC50 for the compound shown: CC(C)Cc1ccc(C(=O)CC2OC(=O)c3ccccc32)cc1 (stereo unspecified)
Result string: 8.38

---

IC90 values by entry
- System: Plasmodium berghei
- MEASUREMENT_NOTES: Luciferase/luciferin-expressing antifolate-resistant parasites were used to infect a culture of HepG2 cells that were pre-incubated with compounds. Infected hepatocytes emit light due to the luciferase reaction. Assay results are presented as the percent inhibition of light emission compared to control. […]
- Assay type: functional
- EXPERIMENTAL_CONTEXT: sporozoite, read-out: LUCIFERASE INFECTION ASSAY - IC90

SMILES	ASSAYED_SYSTEM	IC90
Nc1nc(N)nc(COC(=O)c2c3c(nc4ccccc24)/C(=C/c2c(F)cccc2Cl)CC3)n1	Plasmodium berghei	> 10 µM

Query string: Please look at `CC(C)=CC(=O)Nc1scc(-c2ccccc2)c1C(=O)OCc1nnc(-c2cccs2)o1` and tell me its recorded IC90 on Plasmodium berghei.
Result string: > 10 µM

Query string: Please look at `CC(C)(C)C(=O)c1sc2c(c1N)c(=O)[nH]c(=O)n2C1CCCCC1` and tell me its recorded IC90 on Plasmodium berghei.
Result string: 3.47 µM

Query string: Please look at `O=C(c1cccc(Cl)c1)c1cnc(Nc2cccc(C(F)(F)F)c2)[nH]1` and tell me its recorded IC90 on Plasmodium berghei.
Result string: > 9.02 µM

Query string: Please look at `CC(C)c1nc(N2CCN(CC(=O)N3CCCC3)CC2)c(C#N)c2c1CCC2` and tell me its recorded IC90 on Plasmodium berghei.
Result string: 2.94 µM

Query string: Please look at `Cc1nc2ncnn2c(C)c1CC(=O)NCCCSc1ccc(F)cc1` and tell me its recorded IC90 on Plasmodium berghei.
Result string: > 10 µM

Query string: Please look at `c1csc(-c2cn3c(-c4ccncc4)cnc3cn2)c1` and tell me its recorded IC90 on Plasmodium berghei.
Result string: > 11.9 µM
